Catalogue of IC50 readings, one per entry.
Target: human CRTH2 (Homo sapiens, UniProt Q9Y5Y4)
Sequence (Q9Y5Y4 whole entry): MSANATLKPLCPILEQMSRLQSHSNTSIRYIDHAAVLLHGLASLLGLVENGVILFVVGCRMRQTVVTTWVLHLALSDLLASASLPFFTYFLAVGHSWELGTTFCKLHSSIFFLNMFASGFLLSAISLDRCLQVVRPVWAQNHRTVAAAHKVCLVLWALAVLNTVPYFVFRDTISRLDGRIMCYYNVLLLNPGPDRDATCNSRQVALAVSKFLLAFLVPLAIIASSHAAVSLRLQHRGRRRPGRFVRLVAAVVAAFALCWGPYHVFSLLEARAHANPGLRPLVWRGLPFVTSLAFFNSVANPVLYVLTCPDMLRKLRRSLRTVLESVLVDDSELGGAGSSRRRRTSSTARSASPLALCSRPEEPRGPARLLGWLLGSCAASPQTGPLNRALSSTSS
Test: Human CRTH2 Receptor Binding Assay (whole cell, [3H]ramatroban competition)
Settings: CHO-K1 cells expressing human CRTH2 and G-alpha16; 20 nM [3H]ramatroban; 1 hour, room temperature
measured.metric: IC50 (nM)

molecule=O=C(O)Cn1ncc2c1CCC[C@H]2NS(=O)(=O)c1ccc(-c2ccccc2)cc1 reported_measurement=93.6
molecule="O=C(O)CCn1ncc2c1CCC[C@H]2NS(=O)(=O)c1cnc(Oc2ccccc2Cl)c(Br)c1 [Example 2-11a]" reported_measurement=18.2
molecule="O=C(O)Cn1ncc2c1CCC[C@H]2NS(=O)(=O)c1ccc(-c2cccc(C(F)(F)F)c2)cc1 [Example 10-25a]" reported_measurement=13.1
molecule=CN([C@@H]1CCCc2c1cnn2CC(=O)O)S(=O)(=O)c1ccc(Oc2ccc(Cl)cc2Cl)cc1Cl reported_measurement=91.4
molecule="O=C(O)Cn1ncc2c1CCCC2NS(=O)(=O)c1cnc(Oc2cccc(Cl)c2)c(Br)c1 (stereo not shown)" reported_measurement=19.4
molecule=CN([C@@H]1CCCc2c1cnn2CC(=O)O)S(=O)(=O)c1cnc(Oc2ccc(Cl)cc2F)c(Br)c1 reported_measurement=7.1
molecule=Cc1ccc(S(=O)(=O)c2cc(C(F)(F)F)cc(S(=O)(=O)N(C)[C@@H]3CCCc4c3cnn4CC(=O)O)c2)cc1 reported_measurement=2.7
